Here the recorded relative viability is given for each entry.
System: NCI-H2009
Assay: relative viability (nuclei count vs DMSO), 5 days (fraction); higher = more cells survive
Settings: first compound 0.8 µM
endpoint.name: relative viability

[
  {
    "compound": "C=C1C(=O)O[C@@H](CCCCCCCC)[C@@H]1C(=O)O [C-75] + CC1(C)CCC(c2ccc(Cl)cc2)=C(CN2CCN(c3ccc(C(=O)NS(=O)(=O)c4ccc(N[C@H](CCN5CCOCC5)CSc5ccccc5)c(S(=O)(=O)C(F)(F)F)c4)cc3)CC2)C1 [Navitoclax] (partner 0.5 µM)",
    "system.under.test": "NCI-H2009",
    "measured.number": 1.1
  },
  {
    "compound": "C=C1C(=O)O[C@@H](CCCCCCCC)[C@@H]1C(=O)O [C-75] + Cc1nc(Nc2ncc(C(=O)Nc3c(C)cccc3Cl)s2)cc(N2CCN(CCO)CC2)n1 [Dasatinib] (partner 0.075 µM)",
    "system.under.test": "NCI-H2009",
    "measured.number": 0.281
  },
  {
    "compound": "Oc1nc(-c2ccc(C(F)(F)F)cc2)nc2c1CSCC2 [XAV939] + COc1cc2c(Oc3ccc(NC(=O)C4(C(=O)Nc5ccc(F)cc5)CC4)cc3F)ccnc2cc1OCCCN1CCOCC1 [Foretinib] (partner 0.25 µM)",
    "system.under.test": "NCI-H2009",
    "measured.number": 1.18
  },
  {
    "compound": "C=C1C(=O)O[C@@H](CCCCCCCC)[C@@H]1C(=O)O [C-75] + COc1cccc2cc(-c3nc([C@H]4CC[C@H](C(=O)O)CC4)n4ncnc(N)c34)[nH]c12 [OSI-027] (partner 0.5 µM)",
    "system.under.test": "NCI-H2009",
    "measured.number": 0.567
  }
]

* * *

System: NCI-H2342
Assay: relative viability (nuclei count vs DMSO), 5 days (fraction); higher = more cells survive
Conditions: first compound 2.53 µM
Define the label as yes when relative viability is strictly less than 0.5 and as no in all remaining cases.

[
  {
    "compound": "Oc1nc(-c2ccc(C(F)(F)F)cc2)nc2c1CSCC2 [XAV939] + Nc1ncn([C@H]2C[C@H](O)[C@@H](CO)O2)c(=O)n1 [Decitabine] (partner 2 µM)",
    "category.label": "yes"
  },
  {
    "compound": "C=C1C(=O)O[C@@H](CCCCCCCC)[C@@H]1C(=O)O [C-75] + O=C(c1cc(Cc2n[nH]c(=O)c3ccccc23)ccc1F)N1CCN(C(=O)C2CC2)CC1 [Olaparib] (partner 8 µM)",
    "category.label": "yes"
  },
  {
    "compound": "Oc1nc(-c2ccc(C(F)(F)F)cc2)nc2c1CSCC2 [XAV939] + CCNC(=O)c1noc(-c2cc(C(C)C)c(O)cc2O)c1-c1ccc(CN2CCOCC2)cc1 [Luminespib] (partner 0.01 µM)",
    "category.label": "yes"
  },
  {
    "compound": "Oc1nc(-c2ccc(C(F)(F)F)cc2)nc2c1CSCC2 [XAV939] + COc1cccc2cc(-c3nc([C@H]4CC[C@H](C(=O)O)CC4)n4ncnc(N)c34)[nH]c12 [OSI-027] (partner 0.5 µM)",
    "category.label": "yes"
  },
  {
    "compound": "Oc1nc(-c2ccc(C(F)(F)F)cc2)nc2c1CSCC2 [XAV939] + CC(=O)Nc1cccc(-n2c(=O)n(C3CC3)c(=O)c3c(Nc4ccc(I)cc4F)n(C)c(=O)c(C)c32)c1 [Trametinib] (partner 0.02 µM)",
    "category.label": "yes"
  },
  {
    "compound": "Oc1nc(-c2ccc(C(F)(F)F)cc2)nc2c1CSCC2 [XAV939] + O=C(CCCCCCC(=O)Nc1ccccc1)NO [Vorinostat] (partner 1 µM)",
    "category.label": "no"
  },
  {
    "compound": "C=C1C(=O)O[C@@H](CCCCCCCC)[C@@H]1C(=O)O [C-75] + O=C(CCCCCCC(=O)Nc1ccccc1)NO [Vorinostat] (partner 1 µM)",
    "category.label": "no"
  },
  {
    "compound": "C=C1C(=O)O[C@@H](CCCCCCCC)[C@@H]1C(=O)O [C-75] + COc1cccc2cc(-c3nc([C@H]4CC[C@H](C(=O)O)CC4)n4ncnc(N)c34)[nH]c12 [OSI-027] (partner 0.5 µM)",
    "category.label": "no"
  },
  {
    "compound": "C=C1C(=O)O[C@@H](CCCCCCCC)[C@@H]1C(=O)O [C-75] + CC(=O)c1c(C)c2cnc(Nc3ccc(N4CCNCC4)cn3)nc2n(C2CCCC2)c1=O [Palbociclib] (partner 0.5 µM)",
    "category.label": "no"
  }
]

* * *

System: NCI-H2405
Assay: relative viability (nuclei count vs DMSO), 5 days (fraction); higher = more cells survive
Settings: first compound 0.05 µM

[
  {
    "compound": "CC1(C)CCC(c2ccc(Cl)cc2)=C(CN2CCN(c3ccc(C(=O)NS(=O)(=O)c4ccc(N[C@H](CCN5CCOCC5)CSc5ccccc5)c(S(=O)(=O)C(F)(F)F)c4)cc3)CC2)C1 [Navitoclax] + Nc1ncn([C@H]2C[C@H](O)[C@@H](CO)O2)c(=O)n1 [Decitabine] (partner 2 µM)",
    "relative viability": 0.885
  },
  {
    "compound": "CC1(C)CCC(c2ccc(Cl)cc2)=C(CN2CCN(c3ccc(C(=O)NS(=O)(=O)c4ccc(N[C@H](CCN5CCOCC5)CSc5ccccc5)c(S(=O)(=O)C(F)(F)F)c4)cc3)CC2)C1 [Navitoclax] + C[C@@H](Oc1cc(-c2cnn(C3CCNCC3)c2)cnc1N)c1c(Cl)ccc(F)c1Cl [Crizotinib] (partner 1 µM)",
    "relative viability": 0.824
  },
  {
    "compound": "CC1(C)CCC(c2ccc(Cl)cc2)=C(CN2CCN(c3ccc(C(=O)NS(=O)(=O)c4ccc(N[C@H](CCN5CCOCC5)CSc5ccccc5)c(S(=O)(=O)C(F)(F)F)c4)cc3)CC2)C1 [Navitoclax] + N=C(N)NC(=N)NCCc1ccccc1 [Phenformin] (partner 250 µM)",
    "relative viability": 0.376
  },
  {
    "compound": "CC1(C)CCC(c2ccc(Cl)cc2)=C(CN2CCN(c3ccc(C(=O)NS(=O)(=O)c4ccc(N[C@H](CCN5CCOCC5)CSc5ccccc5)c(S(=O)(=O)C(F)(F)F)c4)cc3)CC2)C1 [Navitoclax] + NC(=O)Nc1cc(-c2cccc(F)c2)sc1C(=O)N[C@H]1CCCNC1 [AZD7762] (partner 0.2 µM)",
    "relative viability": 0.622
  },
  {
    "compound": "CC1(C)CCC(c2ccc(Cl)cc2)=C(CN2CCN(c3ccc(C(=O)NS(=O)(=O)c4ccc(N[C@H](CCN5CCOCC5)CSc5ccccc5)c(S(=O)(=O)C(F)(F)F)c4)cc3)CC2)C1 [Navitoclax] + CC(=O)c1c(C)c2cnc(Nc3ccc(N4CCNCC4)cn3)nc2n(C2CCCC2)c1=O [Palbociclib] (partner 0.5 µM)",
    "relative viability": 0.562
  },
  {
    "compound": "CC1(C)CCC(c2ccc(Cl)cc2)=C(CN2CCN(c3ccc(C(=O)NS(=O)(=O)c4ccc(N[C@H](CCN5CCOCC5)CSc5ccccc5)c(S(=O)(=O)C(F)(F)F)c4)cc3)CC2)C1 [Navitoclax] + CCNC(=O)c1noc(-c2cc(C(C)C)c(O)cc2O)c1-c1ccc(CN2CCOCC2)cc1 [Luminespib] (partner 0.01 µM)",
    "relative viability": 0.755
  },
  {
    "compound": "CC1(C)CCC(c2ccc(Cl)cc2)=C(CN2CCN(c3ccc(C(=O)NS(=O)(=O)c4ccc(N[C@H](CCN5CCOCC5)CSc5ccccc5)c(S(=O)(=O)C(F)(F)F)c4)cc3)CC2)C1 [Navitoclax] + Cc1nc(NC(=O)N2CCC[C@H]2C(N)=O)sc1-c1ccnc(C(C)(C)C(F)(F)F)c1 [Alpelisib] (partner 2 µM)",
    "relative viability": 0.954
  },
  {
    "compound": "CC1(C)CCC(c2ccc(Cl)cc2)=C(CN2CCN(c3ccc(C(=O)NS(=O)(=O)c4ccc(N[C@H](CCN5CCOCC5)CSc5ccccc5)c(S(=O)(=O)C(F)(F)F)c4)cc3)CC2)C1 [Navitoclax] + COc1cccc2cc(-c3nc([C@H]4CC[C@H](C(=O)O)CC4)n4ncnc(N)c34)[nH]c12 [OSI-027] (partner 0.5 µM)",
    "relative viability": 0.644
  }
]

* * *

Here the recorded relative viability is given for each entry.
Test system: LK-2
Assay: relative viability (nuclei count vs DMSO), 5 days (fraction); higher = more cells survive
Settings: first compound 8 µM

[
  {
    "molecule": "C=C1C(=O)O[C@@H](CCCCCCCC)[C@@H]1C(=O)O [C-75] + CC1(C)CCC(c2ccc(Cl)cc2)=C(CN2CCN(c3ccc(C(=O)NS(=O)(=O)c4ccc(N[C@H](CCN5CCOCC5)CSc5ccccc5)c(S(=O)(=O)C(F)(F)F)c4)cc3)CC2)C1 [Navitoclax] (partner 0.5 µM)",
    "system.under.test": "LK-2",
    "relative viability": 0.648
  },
  {
    "molecule": "C=C1C(=O)O[C@@H](CCCCCCCC)[C@@H]1C(=O)O [C-75] + CC(=O)Nc1cccc(-n2c(=O)n(C3CC3)c(=O)c3c(Nc4ccc(I)cc4F)n(C)c(=O)c(C)c32)c1 [Trametinib] (partner 0.02 µM)",
    "system.under.test": "LK-2",
    "relative viability": 0.575
  },
  {
    "molecule": "C=C1C(=O)O[C@@H](CCCCCCCC)[C@@H]1C(=O)O [C-75] + CC(=O)c1c(C)c2cnc(Nc3ccc(N4CCNCC4)cn3)nc2n(C2CCCC2)c1=O [Palbociclib] (partner 0.5 µM)",
    "system.under.test": "LK-2",
    "relative viability": 0.573
  },
  {
    "molecule": "C=C1C(=O)O[C@@H](CCCCCCCC)[C@@H]1C(=O)O [C-75] + C[C@]1(O)C[C@@H](c2nc(-c3ccc4ccc(-c5ccccc5)nc4c3)c3c(N)nccn32)C1 [Linsitinib] (partner 1 µM)",
    "system.under.test": "LK-2",
    "relative viability": 0.369
  },
  {
    "molecule": "C=C1C(=O)O[C@@H](CCCCCCCC)[C@@H]1C(=O)O [C-75] + O=C(c1cc(Cc2n[nH]c(=O)c3ccccc23)ccc1F)N1CCN(C(=O)C2CC2)CC1 [Olaparib] (partner 8 µM)",
    "system.under.test": "LK-2",
    "relative viability": 0.502
  },
  {
    "molecule": "C=C1C(=O)O[C@@H](CCCCCCCC)[C@@H]1C(=O)O [C-75] + COc1cc2c(Oc3ccc(NC(=O)C4(C(=O)Nc5ccc(F)cc5)CC4)cc3F)ccnc2cc1OCCCN1CCOCC1 [Foretinib] (partner 0.25 µM)",
    "system.under.test": "LK-2",
    "relative viability": 1.06
  }
]
